These measurements were taken from patent US20250376535A1.

kon values for the binders below.
# Assay Target: T1, EGFR (recombinant human, BLI antigen) (human, UniProt P00533 25-645)
# T1 construct: also called rh-EGFR; human EGFR
# Assay Text: BLI (Octet) as in Example 1; printed under the head Kdis(1/s), read as kon
Experimental Endpoint: kon

>>> val("pgEG-SX6 (VHH, not shown: small tags and cut ends) VHH: QVQLVESGGGTVQAGGSLRLSCVASGMREDIFDMGWYRQAPGLQRELVATITSGGSTDYADSVKGRFTISRDNTENTLNLQMNMLKPEDTAVYYCNALYFPPSGGRSSEFWGQGTLVTVSS")
"500000 M⁻¹ s⁻¹"
>>> val("pgEG-SX57 (VHH, not shown: small tags and cut ends) VHH: QVQLVESGGGLVQAGGSLRLSCAGARSIFSIKPMTWYRQAPGKERELVAWFTSGDSPNYADSVKGRFTISRDSAKNTVYLQMNNLKPEDTAVYYCNAVPPLGRWGQGTLVTVSS")
"381000 M⁻¹ s⁻¹"
>>> val("pgEG-SX22 (VHH, not shown: small tags and cut ends) VHH: QVQLVESGGGLVQAGGSLRVSCAVSGGALSAYAMAWFRQAPGKEREFVAGLNWGGDETYYADSAKGRFTISKDNAKNTVSLQMNSLEPEDTAVYYCGGRPGPLLSRATGYKYWGQGTQVTVSS")
"602000 M⁻¹ s⁻¹"
>>> val("pgEG-SX3 (VHH, not shown: small tags and cut ends) VHH: QVQLVESGGGLVQAGGSLRLSCVVYGSIFASTTMGWYRQAPGKQRELVATVYQSGTSVYADSVKGRFTASRDNAKKTVYLQMNSLKPEDTAVYYCHPRATDYWGRGTQVTVSS")
"457000 M⁻¹ s⁻¹"
>>> val("pgEG-SX40 (VHH, not shown: small tags and cut ends) VHH: QVQLVESGGGLVQAGGSLRLSCTGSGIRFSFYTLGWYRQAPGKQRELVAEIYSSDNAKYEDSVKGRFAISRDNAKNSVSLQMNSLKPEDTAVYYCNVRATDYWGPGTQVTVSS")
"358000 M⁻¹ s⁻¹"
